- SUBJECT OF TEST: KRAS(G12V)/SOS1 (Homo sapiens, UniProt P01116, G12V)
- Sequence (P01116 1-188 isoform P01116-2 G12V): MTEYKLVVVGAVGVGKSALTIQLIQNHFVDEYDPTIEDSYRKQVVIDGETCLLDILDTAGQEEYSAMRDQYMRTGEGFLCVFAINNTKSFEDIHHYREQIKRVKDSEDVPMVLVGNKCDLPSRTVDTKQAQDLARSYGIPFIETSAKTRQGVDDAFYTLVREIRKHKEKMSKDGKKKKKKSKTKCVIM
- TEST DESCRIPTION: KRAS(G12V)/SOS1 homogeneous time-resolved fluorescence (HTRF) assay
- RUN CONDITIONS: absence of GTP; 4° C., 3 hours; read-out: HTRF of KRASG12V-SOS1

- MOLECULE: "C#Cc1c(F)ccc2cc(O)cc(-c3ncc4c(N5CC6CCC(C5)N6C(=O)NC(C)C)nc(OCC5(CN6CCC(F)CC6)CC5)nc4c3F)c12 [Example 7]"
  IC50: "< 0.1 µM"
- MOLECULE: "C#Cc1c(F)ccc2cc(O)cc(-c3ncc4c(N5CC6CCC(C5)N6C(=O)C5(C(F)(F)F)CC5)nc(OCC5(CN6CCC(F)CC6)CC5)nc4c3F)c12 [Example 22]"
  IC50: "0.1 to 1 µM"
- MOLECULE: "C#Cc1c(F)ccc2cc(O)cc(-c3ncc4c(N5CC6CCC(C5)N6C(=O)c5c[nH]cn5)nc(OCC5(CN6CCC(F)CC6)CC5)nc4c3F)c12 [Example 30]"
  IC50: "0.1 to 1 µM"
- MOLECULE: "C#Cc1c(F)ccc2cc(O)cc(-c3ncc4c(N5CC6CCC(C5)N6C(=O)C(O)O)nc(OCC5(CN6CCC(F)CC6)CC5)nc4c3F)c12 [Example 15]"
  IC50: "0.1 to 1 µM"
- MOLECULE: "C#Cc1c(F)ccc2cc(O)cc(-c3ncc4c(N5CC6CCC(C5)N6C(=O)NC(C)(C)C)nc(OCC5(CN6CCC(F)CC6)CC5)nc4c3F)c12 [Example 6]"
  IC50: "< 0.1 µM"
- MOLECULE: "C#Cc1c(F)ccc2cc(O)cc(-c3ncc4c(N5CC6CCC(C5)N6S(=O)(=O)NC(C)C)nc(OCC5(CN6CCC(F)CC6)CC5)nc4c3F)c12 [Example 25]"
  IC50: "0.1 to 1 µM"

* * *

The following compounds are listed with their measured pIC50 values.
- SUBJECT OF TEST: KRAS(G12V)/SOS1 (Homo sapiens, UniProt P01116, G12V)
- TEST DESCRIPTION: KRAS(G12V)/SOS1 homogeneous time-resolved fluorescence (HTRF) assay
- RUN CONDITIONS: absence of GTP; 4° C., 3 hours; read-out: HTRF of KRASG12V-SOS1
pIC50: −log10 of the molar value.
READOUT TYPE: pIC50

- COMPOUND: "C#Cc1c(F)ccc2cc(O)cc(-c3nc(OC)c4c(N5CC6CCC(C5)N6C(=O)NC#N)nc(OCC5(CN6CCC(F)CC6)CC5)nc4c3F)c12"
  SUBJECT OF TEST: "KRAS(G12V)/SOS1 (Homo sapiens, UniProt P01116, G12V)"
  READOUT TYPE: "pIC50"
  EXPERIMENTAL VALUE: "6.00 to 7.00"
- COMPOUND: "C#Cc1c(F)ccc2cc(O)cc(-c3ncc4c(N5CC6CCC(C5)N6C(=O)N(C)C)nc(OCC5(CN6CCC(F)CC6)CC5)nc4c3F)c12"
  SUBJECT OF TEST: "KRAS(G12V)/SOS1 (Homo sapiens, UniProt P01116, G12V)"
  READOUT TYPE: "pIC50"
  EXPERIMENTAL VALUE: "> 7.00"
- COMPOUND: "C#Cc1c(F)ccc2cc(O)cc(-c3nc(OC)c4c(N5CC6CCC(C5)N6C(=O)C(C)C(F)(F)F)nc(OCC5(CN6CCC(F)CC6)CC5)nc4c3F)c12 (stereo not drawn)"
  SUBJECT OF TEST: "KRAS(G12V)/SOS1 (Homo sapiens, UniProt P01116, G12V)"
  READOUT TYPE: "pIC50"
  EXPERIMENTAL VALUE: "> 7.00"
- COMPOUND: "C#Cc1c(F)ccc2cc(O)cc(-c3ncc4c(N5CC6CCC(C5)N6C(=O)CCC#N)nc(OCC5(CN6CCC(F)CC6)CC5)nc4c3F)c12"
  SUBJECT OF TEST: "KRAS(G12V)/SOS1 (Homo sapiens, UniProt P01116, G12V)"
  READOUT TYPE: "pIC50"
  EXPERIMENTAL VALUE: "> 7.00"
- COMPOUND: "C#Cc1c(F)ccc2cc(O)cc(-c3ncc4c(N5CC6CCC(C5)N6C(C)=O)nc(OCC5(CN6CCC(F)CC6)CC5)nc4c3F)c12"
  SUBJECT OF TEST: "KRAS(G12V)/SOS1 (Homo sapiens, UniProt P01116, G12V)"
  READOUT TYPE: "pIC50"
  EXPERIMENTAL VALUE: "6.00 to 7.00"
- COMPOUND: "C#Cc1c(F)ccc2cc(O)cc(-c3ncc4c(N5CC6CCC(C5)N6C(=O)N5CC(OC)C5)nc(OCC5(CN6CCC(F)CC6)CC5)nc4c3F)c12"
  SUBJECT OF TEST: "KRAS(G12V)/SOS1 (Homo sapiens, UniProt P01116, G12V)"
  READOUT TYPE: "pIC50"
  EXPERIMENTAL VALUE: "6.00 to 7.00"
- COMPOUND: "C#Cc1c(F)ccc2cc(O)cc(-c3nc(OC)c4c(N5CC6CCC(C5)N6C(=O)NC(C)(C#N)CC)nc(OCC5(CN6CCC(F)CC6)CC5)nc4c3F)c12 (stereo not drawn)"
  SUBJECT OF TEST: "KRAS(G12V)/SOS1 (Homo sapiens, UniProt P01116, G12V)"
  READOUT TYPE: "pIC50"
  EXPERIMENTAL VALUE: "> 7.00"
- COMPOUND: "C#Cc1c(F)ccc2cc(O)cc(-c3nc(OC)c4c(N5CC6CCC(C5)N6C(=O)NC(C)(C)C#N)nc(OCC5(CN6CCC(F)CC6)CC5)nc4c3F)c12"
  SUBJECT OF TEST: "KRAS(G12V)/SOS1 (Homo sapiens, UniProt P01116, G12V)"
  READOUT TYPE: "pIC50"
  EXPERIMENTAL VALUE: "> 7.00"
- COMPOUND: "C#Cc1c(F)ccc2cc(O)cc(-c3ncc4c(N5CC6CCC(C5)N6C(=O)OC(C)C)nc(OCC5(CN6CCC(F)CC6)CC5)nc4c3F)c12"
  SUBJECT OF TEST: "KRAS(G12V)/SOS1 (Homo sapiens, UniProt P01116, G12V)"
  READOUT TYPE: "pIC50"
  EXPERIMENTAL VALUE: "6.00 to 7.00"
- COMPOUND: "C#Cc1c(F)ccc2cc(O)cc(-c3ncc4c(N5CC6CCC(C5)N6S(=O)(=O)CC(C)C)nc(OCC5(CN6CCC(F)CC6)CC5)nc4c3F)c12"
  SUBJECT OF TEST: "KRAS(G12V)/SOS1 (Homo sapiens, UniProt P01116, G12V)"
  READOUT TYPE: "pIC50"
  EXPERIMENTAL VALUE: "6.00 to 7.00"
- COMPOUND: "C#Cc1c(F)ccc2cc(O)cc(-c3nc(OC)c4c(N5CC6CCC(C5)N6C(=O)NC(C)(C)C)nc(OCC5(CN6CCC(F)CC6)CC5)nc4c3F)c12"
  SUBJECT OF TEST: "KRAS(G12V)/SOS1 (Homo sapiens, UniProt P01116, G12V)"
  READOUT TYPE: "pIC50"
  EXPERIMENTAL VALUE: "> 7.00"
- COMPOUND: "C#Cc1c(F)ccc2cc(O)cc(-c3nc(OC)c4c(N5CC6CCC(C5)N6C(=O)NCCF)nc(OCC5(CN6CCC(F)CC6)CC5)nc4c3F)c12"
  SUBJECT OF TEST: "KRAS(G12V)/SOS1 (Homo sapiens, UniProt P01116, G12V)"
  READOUT TYPE: "pIC50"
  EXPERIMENTAL VALUE: "> 7.00"
